Origin of measurements: patent US9663508B2

In this section, each of the compounds is paired with its reported IC50.
Target: human Nav 1.5 (Homo sapiens (Human), UniProt Q14524)
Sequence (Q14524 whole entry): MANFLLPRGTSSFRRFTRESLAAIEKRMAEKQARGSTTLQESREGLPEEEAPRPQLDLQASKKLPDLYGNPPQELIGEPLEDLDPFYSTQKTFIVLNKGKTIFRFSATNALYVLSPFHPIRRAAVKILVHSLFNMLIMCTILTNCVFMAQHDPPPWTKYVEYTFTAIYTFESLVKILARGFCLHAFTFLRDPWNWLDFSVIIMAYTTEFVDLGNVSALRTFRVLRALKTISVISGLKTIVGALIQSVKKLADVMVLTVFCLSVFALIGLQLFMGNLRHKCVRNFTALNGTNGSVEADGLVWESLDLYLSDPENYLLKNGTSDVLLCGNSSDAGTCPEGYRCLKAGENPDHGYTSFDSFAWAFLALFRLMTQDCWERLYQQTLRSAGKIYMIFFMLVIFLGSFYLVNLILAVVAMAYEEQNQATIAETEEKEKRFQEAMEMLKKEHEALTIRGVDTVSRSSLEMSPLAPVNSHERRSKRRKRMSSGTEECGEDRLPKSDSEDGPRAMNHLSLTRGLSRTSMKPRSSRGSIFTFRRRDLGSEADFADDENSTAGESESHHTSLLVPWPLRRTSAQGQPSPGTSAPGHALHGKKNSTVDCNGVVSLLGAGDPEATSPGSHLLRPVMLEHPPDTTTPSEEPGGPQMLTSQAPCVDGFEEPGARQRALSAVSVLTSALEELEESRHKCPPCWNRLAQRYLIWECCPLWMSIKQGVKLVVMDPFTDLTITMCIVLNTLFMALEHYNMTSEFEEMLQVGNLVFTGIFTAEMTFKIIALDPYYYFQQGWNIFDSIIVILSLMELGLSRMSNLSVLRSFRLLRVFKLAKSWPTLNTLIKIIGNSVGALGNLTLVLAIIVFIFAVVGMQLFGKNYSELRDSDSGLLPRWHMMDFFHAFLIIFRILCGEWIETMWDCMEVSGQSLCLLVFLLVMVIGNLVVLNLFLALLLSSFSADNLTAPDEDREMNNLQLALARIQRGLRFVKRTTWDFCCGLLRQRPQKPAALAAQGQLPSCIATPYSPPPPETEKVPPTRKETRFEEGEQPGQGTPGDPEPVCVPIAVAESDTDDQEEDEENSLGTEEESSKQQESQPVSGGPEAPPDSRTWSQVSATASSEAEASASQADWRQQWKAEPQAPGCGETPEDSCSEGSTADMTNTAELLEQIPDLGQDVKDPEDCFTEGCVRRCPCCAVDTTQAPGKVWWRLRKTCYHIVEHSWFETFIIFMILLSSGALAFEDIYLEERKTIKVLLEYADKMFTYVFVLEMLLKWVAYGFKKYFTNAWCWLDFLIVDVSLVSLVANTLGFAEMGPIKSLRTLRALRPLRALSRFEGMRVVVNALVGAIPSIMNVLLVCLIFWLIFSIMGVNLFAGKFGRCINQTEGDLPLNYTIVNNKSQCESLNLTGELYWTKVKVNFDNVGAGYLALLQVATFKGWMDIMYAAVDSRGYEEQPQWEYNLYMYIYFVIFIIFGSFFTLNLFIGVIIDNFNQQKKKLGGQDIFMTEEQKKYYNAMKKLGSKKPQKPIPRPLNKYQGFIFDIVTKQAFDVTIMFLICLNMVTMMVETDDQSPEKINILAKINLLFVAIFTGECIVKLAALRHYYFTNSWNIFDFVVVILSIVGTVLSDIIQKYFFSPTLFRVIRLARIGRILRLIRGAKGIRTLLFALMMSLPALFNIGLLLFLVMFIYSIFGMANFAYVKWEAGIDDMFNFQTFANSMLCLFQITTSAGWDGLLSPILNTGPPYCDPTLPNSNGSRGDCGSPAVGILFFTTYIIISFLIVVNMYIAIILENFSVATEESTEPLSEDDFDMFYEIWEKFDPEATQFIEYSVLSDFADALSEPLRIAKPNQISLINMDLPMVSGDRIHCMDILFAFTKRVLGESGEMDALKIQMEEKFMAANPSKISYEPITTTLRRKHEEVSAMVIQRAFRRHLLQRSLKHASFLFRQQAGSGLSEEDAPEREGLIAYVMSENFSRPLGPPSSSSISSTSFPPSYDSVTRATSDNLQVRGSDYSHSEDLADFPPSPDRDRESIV
Assay: Nav 1.5 IonWorks Quattro (IWQ) in vitro assay
Assay type: cell-based
Conditions: read-out: NAV 1.5 IWQ IC50
METRIC_NAME: IC50

Cc1cc(Cl)ccc1Oc1ncc(-c2cc(F)c(C(=O)NS(C)(=O)=O)cc2C)cc1Cl: > 3000 nM
Cc1cc(C(=O)NS(C)(=O)=O)c(F)cc1-c1cnc(Oc2c(C)cc(Cl)cc2Cl)c(Cl)c1: 2190 nM
Cc1cc(C(=O)NS(C)(=O)=O)c(F)cc1-c1cnc(Oc2ccc(F)c(F)c2F)c(Cl)c1: > 3000 nM
Cc1cc(C(=O)NS(C)(=O)=O)c(F)cc1-c1cnc(O[C@H](C)c2cc(Cl)ccc2Cl)c(Cl)c1: > 10000 nM
COc1cc(C(=O)NS(C)(=O)=O)c(F)cc1-c1cnc(O[C@H]2C[C@H]3CC[C@@H]2C3)c(Cl)c1: > 3000 nM
Cc1cc(C(=O)NS(C)(=O)=O)c(F)cc1-c1cnc(Oc2ccc(C)c(F)c2F)c(Cl)c1: 5440 nM
Cc1cc(C(=O)NS(C)(=O)=O)c(F)cc1-c1cnc(Oc2cc(F)cc(F)c2Cl)c(Cl)c1: > 3000 nM
CC[C@H](Oc1ncc(-c2cc(F)c(C(=O)NS(C)(=O)=O)cc2C)cc1Cl)c1ccc(F)cc1: > 3000 nM
Cc1cc(C(=O)NS(C)(=O)=O)c(F)cc1-c1cnc(O[C@H](C)c2nc3cc(Cl)ccc3s2)c(Cl)c1: > 3000 nM
CS(=O)(=O)NC(=O)c1cc(Cl)c(-c2cnc(Oc3cc(F)ccc3F)c(Cl)c2)cc1F: 5390 nM
Cc1cc(C(=O)NS(C)(=O)=O)c(F)cc1-c1cnc(Oc2cc(F)c(Cl)c(F)c2)c(Cl)c1: > 10000 nM
Cc1cc(C(=O)NS(C)(=O)=O)c(F)cc1-c1cnc(OCc2cccc3ncccc23)c(Cl)c1: > 3000 nM
Cc1cc(C(=O)NS(C)(=O)=O)c(F)cc1-c1cnc(OCCC(C)C)c(Cl)c1: > 3000 nM
COc1cc(C(=O)NS(C)(=O)=O)c(F)cc1-c1cnc(Oc2ccc(C)c(F)c2)c(Cl)c1: 6050 nM
Cc1cc(C(=O)NS(C)(=O)=O)c(F)cc1-c1cnc(O[C@H](C)c2nc3ccccc3s2)c(Cl)c1: > 3000 nM
